Assay: nonselective antagonists in TAAR1 counter-screen cells, counter-screen for hTAAR1 antagonist project, cell-based, fluorescence, calcium (AID 651780);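 note: CHO-Ga16 host cells stimulated with ATP at an EC80 level; 0% = agonist EC80 plus vehicle and 100% = vehicle without agonist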
Conditions: counterscreen cell line, antagonist mode, at 3 µM, hits give high values
About 1,800 (75%) of roughly 2,400 compounds were called active. So high a share suggests a set chosen from earlier hits. Not all results are given here.
parameter: inhibition (%)
Numbers only, in %.

Observe how each entry below is paired with its result.
                                   compound   parameter  measure_unit  measured
0  O=C(COC(=O)c1c2c(nc3ccccc13)CCCC2)c1ccc(Br)s1  inhibition             %      20.1
1  COc1cc2ccccc2cc1C(=O)Nc1ccc(NC(=O)c2cccs2)cc1  inhibition             %      27.7
2  COC(=O)c1sccc1NC(=O)c1cc(OC)c(OC)c(OC)c1  inhibition             %      21.3
3  CCOc1ccc(NC(=O)N2CC=C(n3c(=O)[nH]c4ccccc43)CC2)cc1  inhibition             %      19.3
4  CNC(=O)c1ccsc1NC(=O)c1ccc(S(=O)(=O)N2CCc3ccccc32)cc1  inhibition             %      32.3
5  CC(=O)Nc1ccc(NC(=O)COC(=O)C2CCC(C(C)(C)C)CC2)cc1 (stereo not given)  inhibition             %      24.5
6  COc1ccc(CCNC(=O)C(=O)NCC2OCCN2S(=O)(=O)c2ccc(OC)c(C)c2)cc1 (stereo not given)  inhibition             %      23.7
7  O=C(CN1CCCSc2ccccc21)N1CCN(S(=O)(=O)c2cccc(F)c2)CC1  inhibition             %      19.4

Take each entry in turn and give its inhibition.
1. CN(c1ccccc1)S(=O)(=O)c1cc(C(=O)Nc2nc3ccccc3[nH]2)ccc1Cl
2. O=C(NCC1CCCO1)c1cc2c([nH]c3ccccc32)c(-c2ccc(F)cc2)n1 (stereo not given)

1: 39.7; 2: 30.9
